assay: qHTS for Inhibitors of human tyrosyl-DNA phosphodiesterase 1 (TDP1): qHTS in cells in absence of CPT; conditions: DT40 Tdp1-/- hTDP1 cells, no CPT, ATP luminescence, 48 h; further: nearly all actives have a fitted effect of over 55% in size; further: potency means the concentration at half of the fitted maximal effect
The campaign covered roughly 420,000 compounds. About 64,000 (15%) were called active. About 27% were inconclusive and are not listed. The list is a sample of the results.
readoutKind: Potency

Below, each entry is followed by its recorded Potency result.
What the record says about `C=CCNC(=O)c1ccccc1NC(=O)c1ccc(Cl)c(S(=O)(=O)Nc2cccc(C)c2C)c1` : Potency is 16.4 µM (active)

What the record says about `CC(=O)N(c1ccc2oc(=O)sc2c1)S(=O)(=O)c1ccc(C)cc1` : Potency is 16.4 µM (active)

What the record says about `COc1ccc(-n2cc(CNC3CCOCC3)c(-c3cccc(F)c3)n2)cc1` : Potency is 20.6 µM (active)

What the record says about `Cc1cc(=O)c2cc(C(=O)Nc3cccc(C)c3C)ccc2[nH]1` : Potency is inactive

What the record says about `Cc1cccc(-n2cc(CN3CCN(C(=O)c4ncn[nH]4)CC3)c(-c3cccc(F)c3)n2)c1` : Potency is inactive

Next compound, Potency to be filled in.
What the record says about CCC(O)C1CCN(Cc2cn(-c3ccc(OC)cc3)nc2-c2cccc(F)c2)CC1 (stereo not given) : Potency is 20.6 µM (active)
